# TEST SYSTEM: B2 bradykinin receptor (Cavia porcellus, UniProt O70526)
# PROTOCOL: In vitro inhibitory activity towards bradykinin receptor B2 using [3H]BK (0.06 nM) as a radioligand in guinea pig ileum membrane preparation
Hi! Just check whether IC50 is below 3 nM. Below gives 1, equal or above gives -1.

Completed entries (count: 3):
1) Cc1cc(N(C)C)c2cccc(OCc3c(Cl)ccc(N(C)C(=O)CNC(=O)/C=C/c4ccc(C(=O)N(C)C)cc4)c3Cl)c2n1 : 1
2) Cc1cc(-n2ccnc2)c2cccc(OCc3c(Cl)ccc(N(C)C(=O)CNC(=O)Nc4cccc(C(=O)Nc5ccncc5)c4)c3Cl)c2n1 : -1
3) Cc1cc(-n2cccn2)c2cccc(OCc3c(Cl)ccc(N(C)C(=O)CNC(=O)/C=C/c4ccc(C(=O)N(C)C)cc4)c3Cl)c2n1 : -1

Qu. I wonder whether CNC(=O)c1ccc(/C=C/C(=O)NCC(=O)N(C)c2ccc(Cl)c(COc3cccc4c(-n5ccnc5)cc(C)nc34)c2Cl)cc1 has IC50 below 3 nM. Can you tell?
Ans. -1

----------
Would you kindly list IC50 for each of these compounds?
# TEST SYSTEM: B2 bradykinin receptor (Cavia porcellus)
# Sequence (O70526 whole entry): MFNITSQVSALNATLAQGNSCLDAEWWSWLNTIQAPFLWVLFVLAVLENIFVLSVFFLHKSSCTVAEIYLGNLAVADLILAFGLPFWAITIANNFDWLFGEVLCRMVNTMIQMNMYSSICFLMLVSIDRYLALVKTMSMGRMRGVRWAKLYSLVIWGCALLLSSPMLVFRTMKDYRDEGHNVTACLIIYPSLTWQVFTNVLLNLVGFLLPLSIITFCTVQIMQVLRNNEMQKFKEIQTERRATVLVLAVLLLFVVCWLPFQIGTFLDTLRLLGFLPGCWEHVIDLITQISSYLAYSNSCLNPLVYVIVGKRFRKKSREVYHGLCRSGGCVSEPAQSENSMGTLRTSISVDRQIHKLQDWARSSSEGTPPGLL
# PROTOCOL: In vitro inhibitory activity towards bradykinin receptor B2 using [3H]BK (0.06 nM) as a radioligand in guinea pig ileum membrane preparation

Reference set (3 entries):
1) CNC(=O)c1ccc(/C=C/C(=O)NCC(=O)N(C)c2ccc(Cl)c(COc3cccc4c(-n5cncn5)cc(C)nc34)c2Cl)cc1 : 4.4 nM
2) Cc1cc(-n2ccnc2)c2cccc(OCc3c(Cl)ccc(N(C)C(=O)CNC(=O)/C=C/c4ccc(C(=O)N(C)C)cc4)c3Cl)c2n1 : 4.3 nM
3) Cc1cc(-n2ccnc2)c2cccc(OCc3c(Cl)ccc(-n4cccc4CNC(=O)/C=C/c4ccc(C(=O)NCc5ccccn5)cc4)c3Cl)c2n1 : 6 nM

Turning to the following compound.
Qu. Tell me reported IC50 for CNC(=O)c1ccc(/C=C/C(=O)NCC(=O)N(C)c2ccc(Cl)c(COc3cccc4c(-n5cccn5)cc(C)nc34)c2Cl)cc1 , tested with B2 bradykinin receptor (Cavia porcellus).
Ans. 2.7 nM

----------
# TEST SYSTEM: B2 bradykinin receptor (Homo sapiens, UniProt P30411)
# Sequence (P30411 whole entry): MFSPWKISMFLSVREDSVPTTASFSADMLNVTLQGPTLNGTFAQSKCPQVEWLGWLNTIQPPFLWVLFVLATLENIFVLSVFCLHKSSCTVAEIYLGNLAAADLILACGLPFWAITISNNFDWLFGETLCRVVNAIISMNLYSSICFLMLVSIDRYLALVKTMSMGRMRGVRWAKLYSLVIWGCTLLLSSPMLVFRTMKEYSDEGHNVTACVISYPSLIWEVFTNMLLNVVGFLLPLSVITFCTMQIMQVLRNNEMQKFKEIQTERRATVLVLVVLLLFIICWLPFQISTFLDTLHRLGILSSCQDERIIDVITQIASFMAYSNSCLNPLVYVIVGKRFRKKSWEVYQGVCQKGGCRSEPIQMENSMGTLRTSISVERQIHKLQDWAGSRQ
# PROTOCOL: In vitro inhibitory activity towards human bradykinin receptor B2 expressed in CHO cells using [3H]BK (1.0 nM) as a radioligand
EXPERIMENTAL READOUT: pIC50
Give bare numbers, as −log10 of the molar value.

1. Cc1cc(-n2ccnc2)c2cccc(OCc3c(Cl)ccc(N(C)C(=O)CNC(=O)/C=C/c4ccc(C(=O)Nc5ccncc5)cc4)c3Cl)c2n1 : 9.38
2. CNC(=O)c1ccc(/C=C/C(=O)NCC(=O)N(C)c2ccc(Cl)c(COc3cccc4c(-n5cccn5)cc(C)nc34)c2Cl)cc1 : 9.77
3. Cc1cc(N(C)C)c2cccc(OCc3c(Cl)ccc(N(C)C(=O)CNC(=O)/C=C/c4ccc(C(=O)N(C)C)cc4)c3Cl)c2n1 : 8.68
4. Cc1cc(-n2ccnc2)c2cccc(OCc3c(Cl)ccc(-n4cccc4CNC(=O)/C=C/c4ccc(C(=O)N(C)C)cc4)c3Cl)c2n1 : 9.59

Pending compound:
Qu. # pIC50 lookup, item CNC(=O)c1ccc(/C=C/C(=O)NCC(=O)N(C)c2ccc(Cl)c(COc3cccc4c(N(C)C)cc(C)nc34)c2Cl)cc1
Ans. 8.49

Where do these numbers come from? They come from ChEMBL document CHEMBL1149113.
